- System: MDR1
- measurement.notes: Efflux ratio of permeability across basolateral to apical over apical to basolateral in dog MDCK cells transfected with MDR1 gene
- Format: ADME, cell-based, Canis lupus familiaris
measure: efflux ratio
# respond with the number and nothing more

Qu. State the recorded efflux ratio for this entry: `COc1cccnc1C1CCN(CC2CCN(c3cnccn3)CC2)CC1`
Ans. 3.89

----------
Measured Emax values are reported for all entries that follow.
- tested.on: UniProt P08173
- measurement.notes: Agonist activity at human Muscarinic acetylcholine receptor M4 expressed in HEK cells co-expressing Glosensor construct assessed as decrease in isoproterenol-induced cAMP accumulation at 10 uM to 0.3 nM incubated for 2 hrs in presence of isoproterenol and measured after 7 mins by Glosensor cAMP reagent/plate reader based luminescence assay relative to acetylcholine
- Type: functional, cell-based
Please state the figure in %; there is no need to write the unit.

compound: COc1cccnc1C1CCN(C2CCCN(c3cnccn3)CC2)CC1 (stereo unspecified)
measure: Emax
quantitative.readout: 96.8
//
compound: COc1cccnc1C1CCN(C2CCCN(c3cncc(C)n3)CC2)CC1 (stereo unspecified)
measure: Emax
quantitative.readout: 100
//
compound: COc1cccnc1C1CCN(C2CCCN(c3cnc(C)cn3)CC2)CC1 (stereo unspecified)
measure: Emax
quantitative.readout: 51
//
compound: COc1cccnc1C1CCN(C2CCCN(c3cnsn3)CC2)CC1 (stereo unspecified)
measure: Emax
quantitative.readout: 109
//
compound: COc1cccnc1C1CCN(C2CCCN(c3ncns3)CC2)CC1 (stereo unspecified)
measure: Emax
quantitative.readout: 101

Qu. State the recorded Emax for this entry: c1ccc(-n2ccnc2[C@@H]2[C@@H]3CN(C4CC5(CCN(c6cnccn6)C5)C4)C[C@@H]32)cc1 (stereo partly specified)
Ans. 83.8

----------
- tested.on: Muscarinic acetylcholine receptor M4 (Homo sapiens) (UniProt P08173)
- Sequence (P08173 whole entry): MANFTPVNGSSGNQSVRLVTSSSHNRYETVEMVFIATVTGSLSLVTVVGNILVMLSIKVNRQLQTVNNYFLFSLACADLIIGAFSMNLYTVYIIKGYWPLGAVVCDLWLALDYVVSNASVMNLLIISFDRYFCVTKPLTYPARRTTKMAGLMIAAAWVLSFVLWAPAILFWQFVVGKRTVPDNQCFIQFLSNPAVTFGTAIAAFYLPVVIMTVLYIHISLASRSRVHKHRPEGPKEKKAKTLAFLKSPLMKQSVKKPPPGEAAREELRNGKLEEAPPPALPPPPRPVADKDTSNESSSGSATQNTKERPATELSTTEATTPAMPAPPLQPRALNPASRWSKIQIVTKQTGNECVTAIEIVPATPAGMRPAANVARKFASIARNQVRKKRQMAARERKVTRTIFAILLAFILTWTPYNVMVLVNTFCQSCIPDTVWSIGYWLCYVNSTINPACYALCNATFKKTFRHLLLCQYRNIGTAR
- measurement.notes: Agonist activity at human Muscarinic acetylcholine receptor M4 expressed in HEK cells co-expressing Glosensor construct assessed as decrease in isoproterenol-induced cAMP accumulation at 10 uM to 0.3 nM incubated for 2 hrs in presence of isoproterenol and measured after 7 mins by Glosensor cAMP reagent/plate reader based luminescence assay relative to acetylcholine
- Format: functional, cell-based
measure: Emax (%)
Please state the figure in %; there is no need to write the unit.

compound: COc1cccnc1C1CCN(C2CCCN(c3nccnc3C)CC2)CC1 (stereo not given)
Emax [%]: 120
--
compound: COc1cccnc1C1CCN(C2CCCN(c3nsnc3C)CC2)CC1 (stereo not given)
Emax [%]: 107
--
compound: CCOC(=O)N1CCC(CN2CCC(c3ncccc3OC)CC2)CC1
Emax [%]: 82
--
compound: COc1cccnc1C1CCN(C2CCCN(c3nsnc3OC)CC2)CC1 (stereo not given)
Emax [%]: 94
--
compound: CCOC(=O)N1CCC2(CC(N3CCC(c4ncccc4OC)CC3)C2)C1 (stereo not given)
Emax [%]: 90
--
compound: CCOC(=O)N1CCC2(CC(N3C[C@@H]4[C@H](C3)[C@@H]4c3nccn3-c3ccccc3)C2)C1 (stereo not given in full)
Emax [%]: 99
--
compound: O=C1CCCN1CC#CCN1CCCC1
Emax [%]: 94.4
--
compound: COc1cccnc1C1CCN(CC2CCN(c3cnccn3)CC2)CC1
Emax [%]: 78

Qu. Missing value: Emax, Muscarinic acetylcholine receptor M4 (Homo sapiens) (UniProt P08173), entry COc1cccnc1C1CCN(C2CC3(CCN(c4cnccn4)C3)C2)CC1 (stereo not given) . Fill in?
Ans. 100
